target: RecQ-WH (Escherichia coli, UniProt P15043); construct: coding for residues 408– 523 of E. coli RecQ; made in house; host or cells: E. coli BL21(DE3); test: Pull-down assay with immobilized protein and LSM libraries; set-up: species or system E. coli; details: H14 library; 1:1 binding assumed; read-out: Surface mapping KD (apparent)
Sequence (P15043 408-523): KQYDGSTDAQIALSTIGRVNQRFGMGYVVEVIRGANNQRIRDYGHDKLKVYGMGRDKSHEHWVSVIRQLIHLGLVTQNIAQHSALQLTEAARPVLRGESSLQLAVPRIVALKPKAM
Kd strictly less than 300 µM = Met. Otherwise Not met.

Recorded results for 5 molecules are shown here.
| Cpd Smiles | Label Value |
| --- | --- |
| N=C(N)NCCC[C@@H](CC(=O)N[C@H]1CCCC[C@@H]1C(N)=O)NC(=O)[C@H]1CCCC[C@@H]1NC(=O)[C@H]1CCCC[C@@H]1NC(=O)C[C@H](CCCCN)NC(=O)[C@H]1CCCC[C@@H]1N | Not met |
| NC(=O)[C@H]1CCCC[C@@H]1NC(=O)C[C@H](Cc1c[nH]c2ccccc12)NC(=O)[C@H]1CCCC[C@@H]1NC(=O)[C@H]1CCCC[C@@H]1NC(=O)C[C@H](CCC(=O)O)NC(=O)[C@H]1CCCC[C@@H]1N | Met |
| NC(=O)[C@H]1CCCC[C@@H]1NC(=O)C[C@H](Cc1ccccc1)NC(=O)[C@H]1CCCC[C@@H]1NC(=O)[C@H]1CCCC[C@@H]1NC(=O)C[C@H](CC(=O)O)NC(=O)[C@H]1CCCC[C@@H]1N | Met |
| NC(=O)[C@H]1CCCC[C@@H]1NC(=O)C[C@H](CC(=O)O)NC(=O)[C@H]1CCCC[C@@H]1NC(=O)[C@H]1CCCC[C@@H]1NC(=O)C[C@H](Cc1ccccc1)NC(=O)[C@H]1CCCC[C@@H]1N | Met |
| NC(=O)CC[C@@H](CC(=O)N[C@H]1CCCC[C@@H]1C(=O)N[C@H]1CCCC[C@@H]1C(=O)N[C@H](CC(=O)N[C@H]1CCCC[C@@H]1C(N)=O)Cc1c[nH]c2ccccc12)NC(=O)[C@H]1CCCC[C@@H]1N | Met |

Strictly below 300 µM: is that where Kd of `NC(=O)[C@H]1CCCC[C@@H]1NC(=O)C[C@H](CCC(=O)O)NC(=O)[C@H]1CCCC[C@@H]1NC(=O)[C@H]1CCCC[C@@H]1NC(=O)C[C@H](Cc1c[nH]c2ccccc12)NC(=O)[C@H]1CCCC[C@@H]1N` sits? Met

Also `CC(C)[C@@H](CC(=O)N[C@H]1CCCC[C@@H]1C(N)=O)NC(=O)[C@H]1CCCC[C@@H]1NC(=O)[C@H]1CCCC[C@@H]1NC(=O)C[C@H](Cc1ccc(O)cc1)NC(=O)[C@H]1CCCC[C@@H]1N` ? Met

Provenance of the data: paper PMC8162404
